Reference source: patent US20240325555A1

Target: T1, human LIV-1 (human, UniProt Q13433 29-755)
T1 sequence (looked up): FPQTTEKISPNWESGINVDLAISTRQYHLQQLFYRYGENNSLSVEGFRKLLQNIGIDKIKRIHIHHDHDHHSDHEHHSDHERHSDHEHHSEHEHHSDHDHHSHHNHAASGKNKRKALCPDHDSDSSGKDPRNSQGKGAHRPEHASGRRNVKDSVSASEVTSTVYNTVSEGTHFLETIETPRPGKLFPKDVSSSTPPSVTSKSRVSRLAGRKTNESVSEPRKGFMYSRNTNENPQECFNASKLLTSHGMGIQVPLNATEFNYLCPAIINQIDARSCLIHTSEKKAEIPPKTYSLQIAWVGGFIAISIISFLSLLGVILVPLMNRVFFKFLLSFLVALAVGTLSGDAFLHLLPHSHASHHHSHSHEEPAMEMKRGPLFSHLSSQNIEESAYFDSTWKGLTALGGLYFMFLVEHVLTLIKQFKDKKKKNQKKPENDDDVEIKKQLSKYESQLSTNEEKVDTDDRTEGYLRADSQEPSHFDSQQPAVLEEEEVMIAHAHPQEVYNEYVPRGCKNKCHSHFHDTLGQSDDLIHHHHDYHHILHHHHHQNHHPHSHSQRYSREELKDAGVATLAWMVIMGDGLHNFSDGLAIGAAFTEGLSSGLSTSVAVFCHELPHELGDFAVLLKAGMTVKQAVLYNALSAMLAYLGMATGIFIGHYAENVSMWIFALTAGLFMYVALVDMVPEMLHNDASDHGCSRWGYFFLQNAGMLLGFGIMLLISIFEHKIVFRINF
Assay: cell-based or functional assay
observed property: Cytotoxicity IC50 (nM)
Give bare numbers, in nM.

Some solved cases for reference:
binder	value reported
47G1B10 (antibody, V domains shown, Tested as chimeric antibody) VH: QVQLKQSGPGLVQPSQSLSITCTVSGFSLTTYGVHWVRQSPGKGLEWLGVIWTGGTTDYNAAFISRLSISKDNSKSQVFFKMNSLQANDTAIYYCARGPSSYWGQGTLVTVSA VL: DIVMTQSQKFMSTSVGDRVSVTCKASQNVDTNVVWYQQKPGQSPKALIHSASYRYSGVPDRFTGSGSGTDFTLTISNVQSEDLAEYFCQQYNNYPWTFGGGTKLEIK	1.53
39D10B2 (antibody, V domains shown, Tested as chimeric antibody) VH: QVQLKQSGPGLVQPSQSLSITCTVSGFSLTTYGVHWVRQSPGKGLEWLGVIWTGGTTDYNAAFISRLSISKDNSKSQVFFKMNSLQANDTAMYYCARGPSSYWGQGTLVTVSA VL: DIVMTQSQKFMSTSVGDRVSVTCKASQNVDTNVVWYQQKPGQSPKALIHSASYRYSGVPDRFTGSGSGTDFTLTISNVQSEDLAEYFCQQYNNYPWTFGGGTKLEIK	1.54
135C6E7 (antibody, V domains shown, Tested as chimeric antibody) VH: EVQLVESGGGLVQPKGSLKLSCAASGFTFNTYAMNWVRQAPGKGLEWVARIRSKYNSYATYYADSVKDRFTISRDDSQSILYLQMNNLKTEDTAMYYCVRHEDYDGGFAYWGQGTLVTVSA VL: DIVMSQSPSSLAVSVGEKVTMSCKSSQSLFKSRTRKNYLAWYQQKPGQSPKLLIYWASTRESGVPDRFTGSGSGTDFTLTISSVQAEDLAVYYCKESYNLMYTFGGGTKLEIK	4.6
124H4D11 (antibody, V domains shown, Tested as chimeric antibody) VH: EVPLQQSGAELVRSGASVKLSCTASGFNIKDYYMHWVKQRPEQGLEWIGWIDPENGDTEYDPKFQGKATMTADTSSNTADLQLSSLTSEDTAVYYCNARYYAFDYWGQGTTLTVSS VL: DVLMTQTPLSLPVSLGDQASISCRSSQSIVHSNGNTYLEWYLQKPGQSPKLLIYKVSNRFSGVPDRFSGSGSGTEFTLKISRVEAEDLGVYYCFQGSQVPPTFGGGTRLEIK	0.57
112H11C12 (antibody, V domains shown, Tested as chimeric antibody; also called 112H1C12) VH: QVQLQQPGAELVRPGASVKLSCKASGYTFTSYWMNWVKQRPGQGLKWIGMIDPSNSKTHYNQMFKDKATLTVDKSSNTAYMQLSSLTSEDSAVYYCARTSTTMATFAYWGQGTLVSVSA VL: DVLMTQTPLSLPVSLGDQASISCRSSQSIVHSNGNTYLEWYLQKPGQSPKLLIYKVSNRFSGVPDRFSGSGSGTDFTLKISRVEAEDLGVYYCFQASHFPLTFGAGTELDLN	2.08

State the recorded Cytotoxicity IC50 for every item in the following list.
1. 109C9D4 (antibody, V domains shown, Tested as chimeric antibody) VH: EVKLVESGGGLVQPGGSRKLSCAASGFTFSDYGMAWVRQAPGKGPEWVTFISNLAYSIYYADTVTGRFTISRENAKNTLYLEMSSLRSEDTAMYYCARVEENGNYFDYWGQGTTLTVSS VL: DIQMTQTTSSLSASLGDRVTIRCRASQDIGIYLHWYQQKPDGTVKLLIYYTSRLHSGVPSRFSGSRSGTDYSLTIGNLEQEDIATYFCLQGNTIPPTFGGGTKLEIK
2. 127A2B9 (antibody, V domains shown, Tested as chimeric antibody) VH: EVQLQESGPSLVKPSQTLSLTCSVTGDSITSGYWNWIRKLPGNKLEYMGYISYSGSTYYNPSLKSRISITRDTSKNQYYLQLNSVTTEDTATYYCARIYYDYDGYFDVWGAGTTVTVSS VL: DIVMTQAAPSVPVTPGESVSISCRSSKSLLHSNGNTFLYWFLQRPGQSPQLLIYRMSNLASGVPDRFSGSGSGTAFTLRISRVEAEDVGVYYCMQHLEYPYTFGGGTKLEIK

0.69
2.25
